experiment: Cmax in mouse at 40 mg/kg, po; type: ADME, organism-based; design: dose 40 mg/kg, route oral; conditions: in vivo
experimentalEndpoint: Cmax
Give me the value, and tack the unit on after it.

Exercise: Fill blank: measured Cmax of the compound "C/C1=C\CC[C@@]2(C)O[C@@H]2[C@H]2OC(=O)[C@@H](CN(C)C)[C@@H]2CC1" is ____.
Key: 200 nM

Taken from ChEMBL document CHEMBL3217665.
